Molecular target: Gal4-RORγ-LBD (Homo sapiens, UniProt P51449)
Sequence (P51449 269-508 limits assumed): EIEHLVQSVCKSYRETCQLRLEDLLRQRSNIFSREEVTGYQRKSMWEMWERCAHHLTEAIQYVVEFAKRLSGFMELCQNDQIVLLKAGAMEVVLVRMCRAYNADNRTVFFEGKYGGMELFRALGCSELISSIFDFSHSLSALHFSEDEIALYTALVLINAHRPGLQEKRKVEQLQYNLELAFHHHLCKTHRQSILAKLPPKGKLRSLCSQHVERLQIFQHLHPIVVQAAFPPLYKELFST
Test: Gal4-RORγ Luciferase Reporter Assay in HEK-293T Cells
Details: HEK-293 cells, with 2 μM ursolic acid, incubated overnight, luciferase readout
Experimental: Exemplary compounds from the above Examples were tested for ability to increase RORγ activity using (i) a RORγ-Ligand Binding Domain (LBD) TR-FRET Assay, and (ii) a Gal4-RORγ Luciferase Reporter Assay in HEK-293T Cells. […] The cells were harvested as described above, counted, and centrifuged to obtain the desired number of cells, then re-suspended in complete growth media at 0.75×10^6 cells/mL. […] The luciferase intensity was read on an Envision plate reader (Perkin Elmer). […]
quantity: EC50

INPUT: Given the entry CCOc1nn(CC)cc1S(=O)(=O)N(CC)c1cccc(OCc2c(F)cccc2Cl)c1 , report its measured EC50.
OUTPUT: 0.5 to 5 µM

INPUT: Let us now turn to CCN(c1cccc(OC2CCc3cccc(F)c32)c1)S(=O)(=O)c1cccc(C(F)(F)F)c1 (stereo not drawn)
OUTPUT: > 10 µM

INPUT: Let us now turn to CCC(c1cccc(OCc2ccccc2)c1)S(=O)(=O)c1cccc(C(F)(F)F)c1 (stereo not drawn)
OUTPUT: 0.5 to 5 µM

INPUT: Let us now turn to CCN(c1cccc(OCc2c(F)cccc2C(F)(F)F)c1)S(=O)(=O)c1cccc(C(F)(F)F)c1
OUTPUT: 0.5 to 5 µM

INPUT: Let us now turn to CCN(c1cccc(OCc2ccccc2Cl)c1)S(=O)(=O)c1cccc(C(F)(F)F)c1
OUTPUT: 0.5 to 5 µM

INPUT: Let us now turn to CCC(c1ccc(OCc2c(F)cccc2Cl)cc1)S(=O)(=O)c1ccc(Cl)cc1 (stereo not drawn)
OUTPUT: 0.5 to 5 µM

Reference for the values: patent US10189777B2
